All values here come from patent US20230263822A1.

experimental.details: Hematology assays in cynomolgus monkeys (Example 45)
Format: in vivo
measurement.parameters: day 50; escalating dose regimen
observable: WBC count (µL⁻¹)
Entry rule: numbers only, all in µL⁻¹.

Consider the following illustrative entries.
substance	WBC count (µL⁻¹)
ISIS 416838: MOE gapmer, nucleobases 1018 to 1042 of SEQ ID NO: 1 (Table 6) (antisense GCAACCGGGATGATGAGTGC; MOE gapmer, wing and gap sizes not given here)	11000
ISIS 417002: MOE gapmer, nucleobases 1275 to 1318 of SEQ ID NO: 1 (Table 8) (antisense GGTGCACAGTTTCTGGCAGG; MOE gapmer, wing and gap sizes not given here)	13000
ISIS 416858: MOE gapmer, nucleobases 1275 to 1318 of SEQ ID NO: 1 (Table 8) (antisense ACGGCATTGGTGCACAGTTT; MOE gapmer, wing and gap sizes not given here)	13000
ISIS 416850: MOE gapmer, nucleobases 1275 to 1318 of SEQ ID NO: 1 (Table 8) (antisense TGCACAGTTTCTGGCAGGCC; MOE gapmer, wing and gap sizes not given here)	11000

Look up WBC count for this substance: ISIS 416864: MOE gapmer, nucleobases 1275 to 1318 of SEQ ID NO: 1 (Table 8) (antisense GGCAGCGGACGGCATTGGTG; MOE gapmer, wing and gap sizes not given here)
12000

====

experimental.details: Body and organ weights of cynomolgus monkeys (Example 46)
Assay type: in vivo
measurement.parameters: day 43
Strand notation (5' to 3'): a small letter for the sugar, then the base; units joined by * are phosphorothioate-linked, units joined directly phosphodiester-linked; [ ] holds rarer units or linkages, { } end groups; capitals alone tell only the bases. e = 2'-O-(2-methoxyethyl) (MOE); [5mC] = 5-methylcytosine; d = 2'-deoxy (DNA)
observable: body weight (g)
Entry rule: numbers only, all in g.

substance	body weight, g
ISIS 449708: 3-8-3, 4-8-4, 2-10-2, 3-10-3 or 4-10-4 MOE microwalk gapmer (Table 46) (antisense eA*e[5mC]*eA*dG*dT*dT*dT*d[5mC]*dT*dG*dG*e[5mC]*eA*eG)	2125

Now look at this entry.
Look up body weight for this substance: ISIS 449709: 3-8-3, 4-8-4, 2-10-2, 3-10-3 or 4-10-4 MOE microwalk gapmer (Table 46) (antisense eG*e[5mC]*eA*e[5mC]*dA*dG*dT*dT*dT*d[5mC]*dT*dG*dG*d[5mC]*eA*eG*eG*e[5mC])
2106

====

experimental.details: Hematology assays in cynomolgus monkeys (Example 46)
Format: in vivo
measurement.parameters: Day-14
Strand notation (5' to 3'): a small letter for the sugar, then the base; units joined by * are phosphorothioate-linked, units joined directly phosphodiester-linked; [ ] holds rarer units or linkages, { } end groups; capitals alone tell only the bases. e = 2'-O-(2-methoxyethyl) (MOE); [5mC] = 5-methylcytosine; d = 2'-deoxy (DNA)
observable: WBC count (µL⁻¹)
Entry rule: numbers only, all in µL⁻¹.

Look up WBC count for this substance: ISIS 449708: 3-8-3, 4-8-4, 2-10-2, 3-10-3 or 4-10-4 MOE microwalk gapmer (Table 46) (antisense eA*e[5mC]*eA*dG*dT*dT*dT*d[5mC]*dT*dG*dG*e[5mC]*eA*eG)
14000

Look up WBC count for this substance: ISIS 449710: 3-8-3, 4-8-4, 2-10-2, 3-10-3 or 4-10-4 MOE microwalk gapmer (Table 46) (antisense e[5mC]*eA*e[5mC]*dA*dG*dT*dT*dT*d[5mC]*dT*dG*dG*d[5mC]*eA*eG*eG)
11000
